Entries and their measured Kd follow.
test system: H7 hemagglutinin (A/Netherlands/219/2003) (influenza A virus A/Netherlands/219/2003 (H7N7))
run description: ELISA on coated HA, relative Kd (4-parameter fit)
Enter your answer as a number in nM; do not include the unit.

- binder: "Ab 005 (antibody, V domains shown) VH: QVQLLETGGGLVKPGQSLKLSCAASGFTFTSYAMHWVRQPPGKGLEWVAVVSYDGNYKYYADSVQGRFTISRDNSKNTLYLQMNSLRAEDTAVYYCAKDSRLRSLLYFEWLSQGYFNPWGQGTTLTVSS VL: DIVMTQSPDTVAVTVGERATINCKSSQTVTFNYKNYLAWYQQKPGQPPKLLIYWASTRESGVPDRFSGSGSGTDFTLTISSLQAEDVAVYYCQQHYRTPPSFGQGTKLDIK"
  observed result: 0.064

Query: # Kd lookup, item Ab 032 (antibody, V domains shown) VH: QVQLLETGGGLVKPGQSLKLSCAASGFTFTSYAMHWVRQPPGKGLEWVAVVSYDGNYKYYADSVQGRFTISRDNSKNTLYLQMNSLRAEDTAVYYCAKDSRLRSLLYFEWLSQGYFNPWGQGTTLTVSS VL: DIQMTQSPSSLSASVGDRVTITCRSSQSITFNYKNYLAWYQQKPGKAPKLLIYWGSYLESGVPSRFSGSGSGTDFTLTISSLQPEDFATYYCQQHYRTPPSFGQGTKVEIK
Reply: 0.106

src = patent US20220204592A1
